# Tested on: HepG2
# Procedure details: Induction of apoptosis in human HepG2 cells at 80 uM incubated for 24 hrs by annexin V-FITC/propidium iodide staining based flow cytometry analysis relative to control
# Assay type: functional
The source made the active and inactive calls. The calls are words filed in the database; no cut-off is given here.
Measurement kind: Activity

OC[C@H]1O[C@@H](Oc2ccc(COC(=S)Nc3ccc(C(F)(F)F)cc3)cc2F)[C@H](O)[C@@H](O)[C@H]1O
inactive
OC[C@H]1O[C@H](Oc2ccc(COC(=S)Nc3ccc(C(F)(F)F)cc3)cc2Br)[C@@H](O)[C@@H](O)[C@@H]1O
51.8%
Cc1ccc(NC(=S)OCc2ccc(O[C@@H]3O[C@H](CO)[C@@H](O)[C@H](O)[C@H]3O)cc2)cc1
inactive
OC[C@H]1O[C@@H](Oc2ccc(COC(=S)Nc3ccc(C(F)(F)F)cc3)cc2)[C@H](O)[C@@H](O)[C@@H]1O
inactive
